The entries below come with measured kon values attached.
targetDesc: T1, extracellular domain of human ILT3 (huILT3-ECD) (human, UniProt Q8NHJ6 22-259)
T1 construct: also called human ILT3-ECD
testName: SPR (Biacore), antibody captured via anti-Fc on CM5 chip, soluble ILT3-ECD injected

| binder | kon |
| --- | --- |
| Hz48A6 C1/C2 (antibody, V domains shown) VH: EVQLVESGGGLVQPGGSLRLSCAASGFTFSSYGMSWVRQAPGKGLEWVATISSGGTYTFYPDSVKGRFTISRDNSKNTLYLQMNSLRAEDTAVYYCARRGWLLHYYAMDYWGQGTLVTVSS VL: DIQLTQSPSFLSASVGDRVTITCRPSESVDSFGNSFMHWFQQKPGKAPKLLIYLSSKLESGVPSRFSGSGSGTEFTLTISSLQPEDFATYYCQQHNEDPFTFGQGTKVEIK | 2.72e+06 M⁻¹ s⁻¹ |
| 45G10 chimera (antibody, V domains shown, also called parental chimeric 45G10) VH: EVQLVESGGGLVKPGGSLKLSCAASGFTFSDYGMHWVRQAPEKGLEWVAYIFSGSSTIYYADTVKGRFTISRDNAKNTLFLQMTSLRSEDTAMYYCARADGRGAMDYWGQGTSVTVSS VL: DVQMTQTTSSLSASLGDRVTISCRASQDISKFLNWYQQKPDGTVTLLIYYTSRLHSGVPSRFSGSGSGTDYSLTISNLDQEDIATYFCQQGNTLPWTFGGGTKLEIK | 2.3e+06 M⁻¹ s⁻¹ |
| Hz45G10 A2/A4 (antibody, V domains shown) VH: EVQLVESGGGLVQPGGSLRLSCAASGFTFSDYGMHWVRQAPGKGLEWVAYIFSGSSTIYYADTVKGRFTISRDNAKNSLYLQMNSLRAEDTAVYYCARADGRGAMDYWGQGTTVTVSS VL: DIQMTQSPSSLSASVGDRVTITCRASQDISKFLNWYQQKPGKAPKLLIYYTSRLHSGVPSRFSGSGSGTDFTFTISSLQPEDIATYFCQQGNTLPWTFGGGTKLEIK | 1.4e+06 M⁻¹ s⁻¹ |
